// data source = patent US20250326840A1

- TARGET_OR_TEST_SYSTEM: T1, QP094 (human SIRPα V1 ECD(E31-R370)-flag-his) (human, UniProt P78324 31-370)
- T1 construct: the construct carries flag and his tags; also called SIRPαV1-flag-his; SIRPαV1-his (QP094)
- T1 sequence (P78324 other isoform, or with tags, fused parts or gaps limits assumed): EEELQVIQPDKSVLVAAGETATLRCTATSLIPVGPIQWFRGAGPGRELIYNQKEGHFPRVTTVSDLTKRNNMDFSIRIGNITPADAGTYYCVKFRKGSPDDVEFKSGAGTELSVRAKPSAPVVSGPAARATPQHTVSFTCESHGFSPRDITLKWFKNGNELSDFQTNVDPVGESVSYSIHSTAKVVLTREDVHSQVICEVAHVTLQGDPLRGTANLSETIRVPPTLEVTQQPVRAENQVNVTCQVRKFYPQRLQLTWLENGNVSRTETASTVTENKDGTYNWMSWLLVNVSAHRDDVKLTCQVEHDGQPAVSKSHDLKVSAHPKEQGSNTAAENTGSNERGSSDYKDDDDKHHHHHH
- ASSAY_COMMENT: SPR, Biacore
VALUE_KIND: Kd (nM)
Quick note: give the figure in nM, leave out the unit.

Would you please look over these solved cases?
Query QP2561770 (antibody, human IgG4, V domains shown, Human IgG4 heavy constant region and kappa CL) VH: QVQLVQSGAEVKKPGASVKVSCKASGYTFTNYWINWVRQAPGQGLEWIAMIDPSDSETHYNQIFKDRATLTTDTSTSTAYMELRSLRSDDTAVYYCAMDYGSLYAMDYWGRGTLVTVSS VL: DIVLTQSPDSLAVSLGERATINCRASQSVRSSGYNWIFWYQQKPGQPPKLLIYLASNRDSGVPDRFSGSGSGTDFTLTISSLQAEDVAVYYCQESRELPTFGQGTKLEIK yields Kd of 0.0288

Query QP2561586 (antibody, human IgG4, V domains shown, Human IgG4 heavy constant region and kappa CL) VH: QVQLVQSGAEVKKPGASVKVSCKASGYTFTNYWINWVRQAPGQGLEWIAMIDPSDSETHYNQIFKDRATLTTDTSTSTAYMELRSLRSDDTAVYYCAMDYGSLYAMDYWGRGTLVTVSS VL: DIVLTQSPDSLAVSLGERATINCRASKSVSSSGYNYIFWYQQKPGQPPKLLIYLASNLDSGVPDRFSGSGSGTDFTLTISSLQAEDVAVYYCQESRELPTFGQGTKLEIK yields Kd of 0.0597

Query QP256279 (antibody, human IgG4, V domains shown, Human IgG4 heavy constant region and kappa CL) VH: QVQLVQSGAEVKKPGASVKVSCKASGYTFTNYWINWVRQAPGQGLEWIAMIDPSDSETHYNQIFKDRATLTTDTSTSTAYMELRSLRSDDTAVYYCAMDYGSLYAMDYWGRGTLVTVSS VL: DIVLTQSPDSLAVSLGERATINCRASQSVRSSGYNWIFWYQQKPGQPPKLLIYLASNRDSGVPDRFSGSGSGTDFTLTISSLQAEDVAVYYCQHSRELPTFGQGTKLEIK yields Kd of 0.0354

Query QP2561581 (antibody, human IgG4, V domains shown, Human IgG4 heavy constant region and kappa CL) VH: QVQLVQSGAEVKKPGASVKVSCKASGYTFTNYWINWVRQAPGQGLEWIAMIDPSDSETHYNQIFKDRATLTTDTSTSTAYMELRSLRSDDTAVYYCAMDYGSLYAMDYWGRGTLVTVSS VL: DIVLTQSPDSLAVSLGERATINCRASKSVSSSGYNYIFWYQQKPGQPPKLLIYLASNLDPGVPDRFSGSGSGTDFTLTISSLQAEDVAVYYCQHSRELPTFGQGTKLEIK yields Kd of 0.137

Query QP2561589 (antibody, human IgG4, V domains shown, Human IgG4 heavy constant region and kappa CL) VH: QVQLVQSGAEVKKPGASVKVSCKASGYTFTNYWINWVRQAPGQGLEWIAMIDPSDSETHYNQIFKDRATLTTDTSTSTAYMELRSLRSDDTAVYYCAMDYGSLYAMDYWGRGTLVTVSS VL: DIVLTQSPDSLAVSLGERATINCRASKSVSSSGYNYIFWYQQKPGQPPKLLIYLASNLDSGVPDRFSGSGSGTDFTLTISSLQAEDVAVYYCQESWELPTFGQGTKLEIK yields Kd of 0.085

Further cases:
Query QP256253 (antibody, human IgG4, V domains shown, also called humanized antibody QP256253; QP163164 humanized clone) VH: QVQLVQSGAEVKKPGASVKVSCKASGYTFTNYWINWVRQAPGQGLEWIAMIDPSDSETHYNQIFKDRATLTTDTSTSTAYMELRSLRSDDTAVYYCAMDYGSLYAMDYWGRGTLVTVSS VL: DIVLTQSPDSLAVSLGERATINCRASKSVSSSGYNYIFWYQQKPGQPPKLLIYLASNLDSGVPDRFSGSGSGTDFTLTISSLQAEDVAVYYCQHSRELPTFGQGTKLEIK yields Kd of 0.26
